conditions: in ethanol, 283.15 K
Result type: solubility (mole fraction)

# input Quick one: solubility (mole fraction) for COC(=O)N(OC)c1ccccc1COc1ccn(-c2ccc(Cl)cc2)n1 ?
# output 0.00458

* * *

details: in isobutanol, 293.15 K
Result type: solubility (mole fraction)

# input Quick one: solubility (mole fraction) for COC(=O)N(OC)c1ccccc1COc1ccn(-c2ccc(Cl)cc2)n1 ?
# output 0.00527

* * *

conditions: in ethanol, 298.15 K
Result type: solubility (mole fraction)

# input Quick one: solubility (mole fraction) for COC(=O)N(OC)c1ccccc1COc1ccn(-c2ccc(Cl)cc2)n1 ?
# output 0.0117
